- Assay method text: A CellTox Green Cytotoxicity Assay to monitor cytotoxicity in HEK293 cells - 40 hour (AID 1224871); also: nearly all actives have a fitted effect of over 45% in size
- Condition: CellTox Green fluorescence; series mostly up to 76.8 µM
Results filed as inconclusive are left out. Active and inactive are the calls of the source. Calls follow the shape of the dose curve; as a rule, active = well fitted activation curve with a large enough effect in the repeat runs; inconclusive = weak or mixed curves; inactive = flat fitted curve, though single readings scatter.
Please state which outcome applies, choosing from TRUE (active), FALSE (inactive)

- Molecule: "COc1cc(C(=O)NCCCCCC(=O)O)cc(OC)c1OC"
  Label class: "FALSE"
- Molecule: "CN1CCCC(CC2c3ccccc3Sc3ccccc32)C1 (stereo unspecified)"
  Label class: "TRUE"
- Molecule: "Brc1cc(Br)c(Oc2cc(Br)c(Br)cc2Br)cc1Br"
  Label class: "FALSE"

Q: Kindly provide the recorded test outcome for the following molecule: CN1C(=O)N(c2ccccc2Br)Cc2cnc(Nc3ccc4c(c3)OCC(CO)O4)nc21 (stereo unspecified)
Ans: FALSE

Q: Please share the test call associated with "Cc1cc(C)cc(N)c1" .
Ans: FALSE

Q: // param item: CC(CC1c2ccccc2CCc2ccccc21)CN(C)C (stereo unspecified) ; yields the recorded call
Ans: FALSE
